Where do these numbers come from? They come from paper PMC9482650.

Target: T1, DLG3_2, Q92796
T1 sequence (Q92796 221-321, limits assumed, looked up): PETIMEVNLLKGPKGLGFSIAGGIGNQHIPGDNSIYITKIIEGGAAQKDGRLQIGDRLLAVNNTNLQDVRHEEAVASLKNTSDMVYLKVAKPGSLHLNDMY
Experiment: holdup assay
Parameters: key: below the threshold = too weak to quantify, mostly under pKd 3.1 to 4
Settings: plain residues with an end cap or a label only (N-terminal biotin on a linker: ado-ado)

# Binder, pKd
data = [
    ("YRLAQESGLV [ABCC6, O95255]", "below the threshold"),
    ("QSPANIYYKV [EFNB1, P52799]", "below the threshold"),
    ("EKKTLIGIKL [GOT1L1, Q8NHS2]", "below the threshold"),
]
